Measured values drawn from PubChem BioAssay AID651702 for this set.

Experiment: LAMP-1 surface exposure blockers, TALL-104 cells – cell-based, flow cytometry, MLPCN library, primary screen (AID 651702)
Details: TALL-104 LAMP-1 surface exposure, at 10 µM, active compounds read high, cells stimulated with thapsigargin and PMA
About 2,400 (0.67%) of roughly 360,000 compounds were called active. Many of the other results were omitted from the sample, so actives are more common in it than they were.
Measured inhibition of individual entries

Compound: CCOc1ccc(OCC)c(NC(=O)CSc2nnc(Cn3cnc4ccccc43)n2C)c1
inhibition: 0.1% (inactive)
--
Compound: CCn1nc(C(=O)NNS(=O)(=O)c2cc(/C=C/C(=O)O)cc(OC)c2OC)c2ccccc2c1=O
inhibition: 1.1% (inactive)
--
Compound: CCCCNC(=O)C(C)N(CCN(C)C)C(=O)CCCN1C(=O)NC(c2ccc(Cl)cc2)C(C(=O)OCc2ccccc2)=C1C (centres undefined)
inhibition: 65.1% (active)
--
Compound: CCCCNC(=O)C(C)N(CCN(C)C)C(=O)CCCCCN1C(=O)NC(c2ccc(Cl)cc2)C(C(=O)OCc2ccccc2)=C1C (centres undefined)
inhibition: 61.8% (active)

====

Test: LAMP-1 surface exposure blockers, TALL-104 cells – cell-based, flow cytometry, MLPCN library, primary screen (AID 651702)
Conditions: TALL-104 LAMP-1 surface exposure, at 10 µM, active compounds read high, cells stimulated with thapsigargin and PMA
The campaign covered roughly 360,000 compounds. About 2,400 (0.67%) were called active. Shown is part of a subset that was picked to be rich in actives.
Measured Attribute: inhibition (%)

Compound: Cc1nc2nc(SCC(=O)c3ccccc3)[nH]c2cc1Br
Experimental Result: -2.1

Compound: Cc1nnc(SCC(=O)N2c3ccccc3C(C)(c3ccc(Cl)cc3)CC2(C)C)s1 (configuration not stated)
Experimental Result: -0.3

Compound: CCOc1ccc(CN2CCN(Cc3c[nH]c4ccccc34)CC2)cc1
Experimental Result: 35.2

Compound: Cc1cnc(C(=O)OCc2c(C)cc(C(C)(C)C)cc2C)cn1
Experimental Result: 63.8

Compound: CCCCC[C@H](C)N1C[C@@H](COCc2ccccc2)Oc2cc(N3CCC[C@@H]3CO)ccc2S1(=O)=O
Experimental Result: 0.2

Compound: CCOC(=O)C1CCN(C(=O)CN2C(=O)c3cccnc3Oc3ccc(C)cc32)CC1
Experimental Result: -4.5

Compound: COc1ccc(CCNCc2c(-c3ccccc3)n(C)c3ccccc23)cc1
Experimental Result: 90.8

Compound: OCCNc1nc(Nc2ccc(Cl)c(Cl)c2)nc2ccccc12
Experimental Result: 57.7

Compound: CN1CCN(C2=NCCO2)CC1
Experimental Result: -6.4

Compound: CCOc1ccc(CCNC(=O)C2CCN(c3ccc(N4CCOCC4)nn3)CC2)cc1OCC
Experimental Result: -0.7

Compound: Oc1ccc2ccccc2c1N=Nc1nccs1
Experimental Result: 61.9

Compound: Cc1cccc(C(=O)NNC(=O)CSc2nnc(C(C)C)n2C)c1
Experimental Result: -2.9

Compound: CCOc1cc(/C=N/NC(=O)c2c(C)nc3ccc(Cl)cn23)ccc1O
Experimental Result: 3.8

Compound: Cc1ccc(N(CC(=O)Nc2cc(C)cc(C)c2)S(=O)(=O)c2cccc3nonc23)cc1
Experimental Result: 2.1

Compound: COc1ccc(CN(C)C(=O)c2cc(-c3ccc(C)cc3C)nc3ccccc23)c(OC)c1OC
Experimental Result: 19.4

Compound: COc1ccc(F)cc1C(=O)COC(=O)c1n[nH]c(=O)c2ccccc12
Experimental Result: 3.6

Compound: Cc1ccc(S(=O)(=O)NC(C(=O)N2CCOCCOCCOCCOCC2)c2ccccc2)cc1 (configuration not stated)
Experimental Result: -7

Compound: OCCC1CN(Cc2cccn2-c2nccs2)CCN1CCc1ccccc1 (configuration not stated)
Experimental Result: 1.1

Compound: COc1ccc(S(=O)(=O)NCC(c2ccco2)N2CCOCC2)cc1 (configuration not stated)
Experimental Result: -1.5

Compound: CN1CCN(C2Cc3ccc(Cl)cc3Sc3ccc(F)cc32)CC1 (configuration not stated)
Experimental Result: 63.7

Compound: OCCNCCOc1ccc(Cl)c(Cl)c1
Experimental Result: 6.6

Compound: CCOc1cc(/C=C(\C#N)c2nc(-c3cccs3)c(NC(C)=O)s2)ccc1O
Experimental Result: 69.2

Compound: COc1ccc(S(=O)(=O)N2CCN(CC(=O)N3c4ccccc4CC3C)CC2)cc1OC (configuration not stated)
Experimental Result: 6.4

Compound: CCCCn1nnnc1C1(C)CCC(=O)N1Cc1ccc(OC)c(OC)c1 (configuration not stated)
Experimental Result: -1.7

Compound: COc1ccc(S(=O)(=O)N2CCN(CC(=O)N3CCOCC3)CC2)cc1OC
Experimental Result: -0.5

Compound: CCCCN1CC(COCc2ccccc2)OCCS1(=O)=O (configuration not stated)
Experimental Result: -5.6

Compound: CCCCC[C@H](C)N1C[C@@H](COCc2ccccc2)Oc2cc(N3CC[C@@H](N(C)C)C3)ccc2S1(=O)=O
Experimental Result: 56.2

Compound: COc1ccc(C2=NS(=O)(=O)N(C)C(C(=O)N(C)Cc3ccccc3)=C2)cc1
Experimental Result: -1.2

Compound: COCc1c(C(=O)N/N=C/C2CC=CCC2)nnn1-c1nonc1N (configuration not stated)
Experimental Result: 1.4

Compound: CC(C)C(=O)NCc1cc(-c2ccc(Cl)cc2)no1
Experimental Result: 0.2

Compound: O=C(O)C(F)(F)C(NCc1ccccc1)c1ccccc1 (configuration not stated)
Experimental Result: 2.5

Compound: CCCCCNC(=O)C(c1ccc(OC)cc1)n1c(=O)c(-c2ccccc2)nc2ccccc21 (configuration not stated)
Experimental Result: 5.5

====

Assay: LAMP-1 surface exposure blockers, TALL-104 cells – cell-based, flow cytometry, MLPCN library, primary screen (AID 651702)
Conditions: TALL-104 LAMP-1 surface exposure, at 10 µM, cells stimulated with thapsigargin and PMA
Out of some 360,000 compounds screened, about 2,400 (0.67%) were called active.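 Rule for the calls: active = inhibition above about 55% (limit read from the data); inconclusive = no clear call, values can overlap the other calls; inactive = the rest.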 This excerpt belongs to a sample that is enriched for actives.
Outcomes: active, inactive

Molecule: Brc1cc(Br)c(Oc2cc(Br)c(Br)cc2Br)cc1Br
Answer Label: inactive
--
Molecule: COc1ccccc1Nc1nnc(SC(C)C(=O)NC2CC2)s1 (centres undefined)
Answer Label: inactive
--
Molecule: Cc1cccc(OCC(O)Cn2c(=N)n(CCN3CCOCC3)c3ccccc32)c1 (centres undefined)
Answer Label: inactive
--
Molecule: Cc1ccc(S(=O)(=O)NCC(=O)NNC(=O)c2ccc(Br)cc2)cc1C
Answer Label: inactive
--
Molecule: NNC(=O)C1CC(O)CN1S(=O)(=O)c1ccc(Cl)cc1 (centres undefined)
Answer Label: inactive
--
Molecule: CC(C)CN1CC(C)C(=O)N(c2ccccc2)C1=S (centres undefined)
Answer Label: inactive
--
Molecule: OC(CN=c1sc2ccccc2n1CC(O)COc1ccccc1)COc1ccccc1 (centres undefined)
Answer Label: active
--
Molecule: O=C(Cn1ncc2c3ccccc3n(Cc3ccccc3)c2c1=O)NCCCN1CCOCC1
Answer Label: inactive
--
Molecule: CCOC(=O)C1C(C)C(C(C)(C)C)N(S(=O)(=O)c2ccc(C)cc2)C1c1ccccc1 (centres undefined)
Answer Label: inactive
--
Molecule: CCCCCCCCN1C(=O)[C@H](CC(=O)NCc2cccc3ccccc23)C[C@@]2(C(=O)OC)CCCCC=C12
Answer Label: inactive
--
Molecule: COc1cccc(CNc2nc(NCc3ccccc3OC)nc3ccsc23)c1
Answer Label: active
--
Molecule: COc1ccc(C2CC(c3cccs3)=NN2C(=O)COC(=O)c2cc3ccccc3cc2O)cc1OC (centres undefined)
Answer Label: inactive
--
Molecule: Cc1nn(CC(=O)NCCc2ccccc2)c(=O)c2cc3occc3n12
Answer Label: inactive
--
Molecule: CCC(=O)Nc1c(C)n[nH]c1C
Answer Label: inactive
--
Molecule: COc1cccc(NC(=O)CSc2nccn(-c3ccc4c(c3)OCCO4)c2=O)c1
Answer Label: inactive
--
Molecule: CCCNC(=O)C[C@@H]1CC[C@@H]2[C@H](COC[C@H](O)CN2C(=O)c2cc(Cl)cc(Cl)c2)O1
Answer Label: inactive
--
Molecule: O=C(NCc1ccccc1)c1onc(CSc2nc3ccccc3[nH]2)c1C(=O)NCc1ccccc1
Answer Label: inactive
--
Molecule: O=C(/C=C/Sc1ncn[nH]1)c1ccc(Cl)cc1
Answer Label: active
--
Molecule: O=C(CNC(=O)N1CC(=O)Nc2ccccc21)Nc1ccc(Br)cc1F
Answer Label: inactive
